As shown below, each of these molecules has a reported pIC50 value.
biological target: UniProt:P80365; test: HSD2 activity: cortisol conversion in human descending colon organoid monolayer cultures (Example 112); settings: human descending colon epithelial cultures on transwells; 30 minute pre-incubation, then 40 nM cortisol for four hours; cortisol HTRF assay
Sequence (P80365 whole entry): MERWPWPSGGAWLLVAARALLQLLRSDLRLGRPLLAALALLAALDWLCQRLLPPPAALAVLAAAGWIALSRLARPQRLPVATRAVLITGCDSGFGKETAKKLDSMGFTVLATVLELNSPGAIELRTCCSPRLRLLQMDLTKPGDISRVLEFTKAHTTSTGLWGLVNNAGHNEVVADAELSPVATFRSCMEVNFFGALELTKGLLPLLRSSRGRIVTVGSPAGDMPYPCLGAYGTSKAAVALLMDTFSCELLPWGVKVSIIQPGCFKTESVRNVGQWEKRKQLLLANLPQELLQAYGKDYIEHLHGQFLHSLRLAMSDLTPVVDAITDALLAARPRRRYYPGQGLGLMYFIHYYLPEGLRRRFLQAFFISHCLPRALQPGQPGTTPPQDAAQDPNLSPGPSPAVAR
// print number alone

Give its pIC50 value. Item: CC1OC(=O)OC1COC(=O)[C@H]1CC[C@]2(C)[C@H]3C(=O)C=C4[C@@H]5C[C@@](C)(C(=O)O)CC[C@]5(C)CC[C@@]4(C)[C@]3(C)CC[C@H]2C1(C)C (stereo partly drawn)
6.3

Give its pIC50 value. Item: CC1(C)[C@@H](C(=O)OCC2COC(=O)O2)CC[C@]2(C)[C@H]3C(=O)C=C4[C@@H]5C[C@@](C)(C(=O)O)CC[C@]5(C)CC[C@@]4(C)[C@]3(C)CC[C@@H]12 (stereo partly drawn)
6.1

Give its pIC50 value. Item: CC(=O)O[C@H]1CC[C@@]2(C)[C@@H](CC[C@]3(C)[C@@H]2C(=O)C=C2[C@@H]4C[C@@](C)(C(=O)O)CC[C@]4(C)CC[C@]23C)[C@]1(C)C(=O)O
5.9

Give its pIC50 value. Item: COC(=O)N[C@H]1CC[C@@]2(C)[C@@H](CC[C@]3(C)[C@@H]2C(=O)C=C2[C@@H]4C[C@@](C)(C(=O)O)CC[C@]4(C)CC[C@]23C)[C@]1(C)C(=O)OCc1oc(=O)oc1C
6.7

Give its pIC50 value. Item: COCC(=O)O[C@H]1CC[C@@]2(C)[C@@H](CC[C@]3(C)[C@@H]2C(=O)C=C2[C@@H]4C[C@@](C)(C(=O)O)CC[C@]4(C)CC[C@]23C)[C@]1(C)C(=O)OCc1oc(=O)oc1C(C)C
6.3

Give its pIC50 value. Item: CCOC(=O)c1cnn([C@H]2CC[C@@]3(C)[C@@H](CC[C@]4(C)[C@@H]3C(=O)C=C3[C@@H]5C[C@@](C)(C(=O)O)CC[C@]5(C)CC[C@]34C)[C@]2(C)C(=O)OCc2oc(=O)oc2C)c1OC
6.9

Give its pIC50 value. Item: CCc1oc(=O)oc1COC(=O)[C@@]1(C)[C@@H]2CC[C@]3(C)[C@H](C(=O)C=C4[C@@H]5C[C@@](C)(C(=O)O)CC[C@]5(C)CC[C@]43C)[C@@]2(C)CC[C@@]1(C)OC(C)=O
6.1

Give its pIC50 value. Item: CSCC(=O)O[C@H]1CC[C@@]2(C)[C@@H](CC[C@]3(C)[C@@H]2C(=O)C=C2[C@@H]4C[C@@](C)(C(=O)O)CC[C@]4(C)CC[C@]23C)[C@]1(C)C(=O)OCc1oc(=O)oc1C(C)C
7

Give its pIC50 value. Item: CCc1oc(=O)oc1COC(=O)[C@]1(C)[C@@H](OC(C)=O)CC[C@@]2(C)[C@H]1CC[C@]1(C)[C@@H]2C(=O)C=C2[C@@H]3C[C@@](C)(C(=O)O)CC[C@]3(C)CC[C@]21C
7.5

Give its pIC50 value. Item: COCCOCCOCCSCc1oc(=O)oc1COC(=O)CO[C@H]1CC[C@]2(C)[C@H]3C(=O)C=C4[C@@H]5C[C@@](C)(C(=O)O)CC[C@]5(C)CC[C@@]4(C)[C@]3(C)CC[C@H]2C1(C)C
6
